testSystem: binding partner of C5A (XPA23)
assaySummary: Biacore, mutant vs original C5A (XPA23)
quantityMeasured: fold difference in affinity in comparison to original (fold)
Numbers only, in fold.

• C5A (XPA23) light chain variable region F94I (antibody, V domains shown) VH: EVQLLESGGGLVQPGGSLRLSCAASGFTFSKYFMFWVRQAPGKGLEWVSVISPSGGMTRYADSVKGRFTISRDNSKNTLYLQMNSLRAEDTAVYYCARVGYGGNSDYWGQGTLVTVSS VL: DIQMTQSPSSVSASVGDRLTIICRASQDINRWLAWYQQTPGNAPKLLIHSATSLQSGVPSRFSGSGSGTDFTLTINSLQPEDFATYYCQQADSIPLTFGGGTKVEIK = 0.88
• C5A (XPA23) light chain variable region S93T (antibody, V domains shown) VH: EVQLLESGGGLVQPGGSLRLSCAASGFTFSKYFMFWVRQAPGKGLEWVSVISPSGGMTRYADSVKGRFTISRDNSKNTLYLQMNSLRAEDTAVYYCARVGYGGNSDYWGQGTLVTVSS VL: DIQMTQSPSSVSASVGDRLTIICRASQDINRWLAWYQQTPGNAPKLLIHSATSLQSGVPSRFSGSGSGTDFTLTINSLQPEDFATYYCQQADTFPLTFGGGTKVEIK = 1.47

Now take the following binder into account.
Prompt: Return reported fold difference in affinity in comparison to original; argument: C5A (XPA23) light chain variable region S53G (antibody, V domains shown) VH: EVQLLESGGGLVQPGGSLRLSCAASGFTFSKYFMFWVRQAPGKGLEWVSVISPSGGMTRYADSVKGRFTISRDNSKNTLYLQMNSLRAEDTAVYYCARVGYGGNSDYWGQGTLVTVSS VL: DIQMTQSPSSVSASVGDRLTIICRASQDINRWLAWYQQTPGNAPKLLIHSATGLQSGVPSRFSGSGSGTDFTLTINSLQPEDFATYYCQQADSFPLTFGGGTKVEIK
Completion: 1.03
